Target: JAK3 (Homo sapiens, UniProt P52333)
Construct: endogenous in cells
Sequence (P52333 1-1124): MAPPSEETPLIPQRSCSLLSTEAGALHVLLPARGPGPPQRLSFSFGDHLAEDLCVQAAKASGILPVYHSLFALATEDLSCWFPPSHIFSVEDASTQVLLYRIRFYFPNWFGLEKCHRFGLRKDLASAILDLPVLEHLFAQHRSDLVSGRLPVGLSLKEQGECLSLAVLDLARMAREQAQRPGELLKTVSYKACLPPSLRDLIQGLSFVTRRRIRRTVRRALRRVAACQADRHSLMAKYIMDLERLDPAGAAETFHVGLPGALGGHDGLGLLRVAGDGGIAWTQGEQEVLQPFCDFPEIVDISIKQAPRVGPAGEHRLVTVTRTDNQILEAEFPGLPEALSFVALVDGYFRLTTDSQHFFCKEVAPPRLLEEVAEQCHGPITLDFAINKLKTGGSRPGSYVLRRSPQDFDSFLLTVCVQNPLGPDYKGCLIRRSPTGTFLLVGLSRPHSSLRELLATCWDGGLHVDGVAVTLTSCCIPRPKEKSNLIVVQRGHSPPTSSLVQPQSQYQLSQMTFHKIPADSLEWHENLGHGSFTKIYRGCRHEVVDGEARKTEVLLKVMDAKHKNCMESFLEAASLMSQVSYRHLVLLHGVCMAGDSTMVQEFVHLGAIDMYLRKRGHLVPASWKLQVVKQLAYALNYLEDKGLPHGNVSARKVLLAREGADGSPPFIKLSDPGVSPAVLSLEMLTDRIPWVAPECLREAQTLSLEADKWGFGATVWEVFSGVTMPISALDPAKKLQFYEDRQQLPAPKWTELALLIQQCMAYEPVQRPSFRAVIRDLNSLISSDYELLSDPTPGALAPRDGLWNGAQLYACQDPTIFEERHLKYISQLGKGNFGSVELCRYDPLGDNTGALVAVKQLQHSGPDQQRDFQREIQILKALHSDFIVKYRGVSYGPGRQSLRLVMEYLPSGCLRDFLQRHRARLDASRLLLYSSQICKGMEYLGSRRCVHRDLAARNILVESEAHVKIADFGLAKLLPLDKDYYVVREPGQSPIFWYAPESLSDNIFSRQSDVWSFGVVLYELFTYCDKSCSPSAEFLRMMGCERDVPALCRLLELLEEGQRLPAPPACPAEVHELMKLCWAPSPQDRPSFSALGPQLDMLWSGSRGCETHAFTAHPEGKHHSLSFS
Test: Kinobeads assay, JAK3
Conditions: mixed Molt4/Ramos cell lysate, dot blot detection
Where a name gives a salt, the structure may show the parent alone.
readoutKind: IC50

compound	studyTarget	IC50
Cn1cc(Nc2ncc3cnn(-c4ccc(C(N)=O)cc4)c3n2)cn1	JAK3 (Homo sapiens, UniProt P52333)	100 to 1000 nM
FC(F)Cn1cc(Nc2ncc3cnn(Cc4ccccc4C4CC4)c3n2)cn1	JAK3 (Homo sapiens, UniProt P52333)	100 to 1000 nM
Cn1cc(Nc2ncc3cnn(CCc4ccccc4F)c3n2)cn1	JAK3 (Homo sapiens, UniProt P52333)	100 to 1000 nM
COCCOc1cccc(Cn2ncc3cnc(Nc4cnn(C)c4)nc32)c1	JAK3 (Homo sapiens, UniProt P52333)	< 100 nM
CS(=O)(=O)Nc1ccccc1Cn1ncc2cnc(Nc3cnn(CC(F)F)c3)nc21 [Example 131, hydrochloride]	JAK3 (Homo sapiens, UniProt P52333)	< 100 nM
Fc1ccccc1Cn1ncc2cnc(Nc3cnn(CCC4CCOCC4)c3)nc21	JAK3 (Homo sapiens, UniProt P52333)	< 100 nM
CC(c1ccccc1F)n1ncc2cnc(Nc3cnn(C)c3)nc21 (stereo not drawn)	JAK3 (Homo sapiens, UniProt P52333)	100 to 1000 nM
Cn1cc(Nc2ncc3cnn(Cc4ccccc4C(=O)O)c3n2)cn1	JAK3 (Homo sapiens, UniProt P52333)	100 to 1000 nM
COc1nn(C)cc1Nc1ncc2cnn(Cc3ccccc3)c2n1	JAK3 (Homo sapiens, UniProt P52333)	< 100 nM
OCCn1ccc(Nc2ncc3cnn(Cc4ccccc4F)c3n2)n1	JAK3 (Homo sapiens, UniProt P52333)	100 to 1000 nM

Need IC50 of Fc1ccccc1Cn1ncc2cnc(Nc3cnn(CCN4CCNCC4)c3)nc21 , thanks.
< 100 nM

Consider next the compound Cn1cc(Nc2ncc3cnn(Cc4cccc(C(F)(F)F)c4)c3n2)cn1 in the same way.
100 to 1000 nM

Consider next the compound Cn1cc(Nc2ncc3cnn(Cc4cccc(C#N)c4)c3n2)cn1 in the same way.
< 100 nM

Consider next the compound OCCn1cc(Nc2ncc3cnn(Cc4c(F)cccc4C(F)(F)F)c3n2)cn1 in the same way.
< 100 nM

Consider next the compound COCCOc1ccccc1Cn1ncc2cnc(Nc3cnn(C)c3)nc21 in the same way.
100 to 1000 nM
